# assay: Test B: Cytotoxicity Assay
# Format: cell-based
# measurement context: human, uninfected MT-4 cells, same protocol as Test A
The reader will find reported CC50 at 5 days values listed item by item below.

molecule	CC50 at 5 days
Cn1nc(NS(C)(=O)=O)c2c(Cl)ccc(-c3ccc(C#CC(C)(C)O)nc3[C@H](Cc3cc(F)cc(F)c3)NC(=O)Cn3nc(C#N)c4c3C(F)(F)[C@@H]3C[C@H]43)c21 [Compound 159]	27.4 µM
C[C@H](O)C(=O)Nc1nn(C)c2c(-c3ccc(C#CC(C)(C)O)nc3[C@H](Cc3cc(F)cc(F)c3)NC(=O)Cn3nc(C(F)F)c4c3C(F)(F)[C@@H]3C[C@H]43)ccc(Cl)c12 [Compound 103]	6.79 µM
COC(=O)Nc1nn(C)c2c(-c3ccc(C#CC(C)(C)O)nc3[C@H](Cc3cc(F)cc(F)c3)NC(=O)Cn3nc(C(F)F)c4c3C(F)(F)[C@@H]3C[C@H]43)ccc(Cl)c12 [Compound 90D]	7.62 µM
Cn1nc(NS(=O)(=O)C(F)(F)F)c2c(Cl)ccc(-c3ccc(C#CC(C)(C)O)nc3[C@H](Cc3cc(F)cc(F)c3)NC(=O)Cn3nc(C(F)F)c4c3C(F)(F)[C@@H]3C[C@H]43)c21 [Compound 171D]	> 42.5 µM
Cc1ccc(-c2ccc(C#CC(C)(C)O)nc2[C@H](Cc2cc(F)cc(F)c2)NC(=O)Cn2nc(C(F)F)c3c2C(F)(F)[C@@H]2C[C@H]32)c2c1c(N)nn2C [Compound 58G]	8.44 µM

====

# Tested on: uninfected MT-4 cells
# assay: Test B: Cytotoxicity Assay
# Assay type: cell-based
# measurement context: same protocol as Test A, 5 days
# CC50 per entry

compound	CC50 [µM]
CCC(O)C#Cc1ccc(-c2ccc(Cl)c3c(NS(C)(=O)=O)nn(C)c23)c([C@H](Cc2cc(F)cc(F)c2)NC(=O)Cn2nc(C(F)(F)F)c3c2C(F)(F)[C@@H]2C[C@H]32)n1 (stereo partly drawn)	8.69
Cn1nc(NS(C)(=O)=O)c2cccc(-c3ccc(C#C[C@@H](N)CO)nc3[C@H](Cc3cc(F)cc(F)c3)NC(=O)Cn3nc(C(F)(F)F)c4c3C(F)(F)[C@@H]3C[C@H]43)c21 [Compound 59B]	22.4
COc1cc(-c2ccc(Cl)c3c(NS(C)(=O)=O)nn(C)c23)c([C@H](Cc2cc(F)cc(F)c2)NC(=O)Cn2nc(C(F)(F)F)c3c2C(F)(F)[C@@H]2C[C@H]32)nc1C#CC(C)(C)O [Compound 135B]	14.2

====

# assay: Test B: Cytotoxicity Assay
# Type: cell-based
# measurement context: human, uninfected MT-4 cells, same protocol as Test A
CC50 at 5 days by entry:

compound	CC50 at 5 days
Cc1ccc(-c2ccc(C#CC(C)(C)C)nc2[C@H](Cc2cc(F)cc(F)c2)NC(=O)Cn2nc(C(F)F)c3c2C(F)(F)[C@@H]2C[C@H]32)c2nnc(N)n12 [Compound 116A]	10.5 µM
CC(C)(O)C#Cc1ccc(-c2cccc3c(N)nccc23)c([C@H](Cc2cc(F)cc(F)c2)NC(=O)Cn2nc(C(F)(F)F)c3c2C(F)(F)[C@@H]2C[C@H]32)n1	4.49 µM
CNS(=O)(=O)Nc1nn(C)c2c(-c3ccc(C#CC(C)(C)O)nc3[C@H](Cc3cc(F)cc(F)c3)NC(=O)Cn3nc(C(F)F)c4c3C(F)(F)[C@@H]3C[C@H]43)ccc(Cl)c12	7.9 µM
Cc1c(CCO)c(C2CC2)nn1CC(=O)N[C@@H](Cc1cc(F)cc(F)c1)c1nc(C#CC(C)(C)O)ccc1-c1ccc(Cl)c2c(NS(C)(=O)=O)nn(C)c12	34.1 µM
Cn1nc(N)c2c(Cl)ccc(-c3ccc(C#CC(C)(C)O)nc3[C@H](Cc3cc(F)cc(F)c3)NC(=O)Cn3nc(C(F)(F)F)c4c3C(F)(F)[C@@H]3C[C@H]43)c21 [Compound 55C]	9.56 µM
Cn1nc(NS(C)(=O)=O)c2c(Cl)ccc(-c3cc(-c4cccnc4)cnc3[C@H](Cc3cc(F)cc(F)c3)NC(=O)Cn3nc(C(F)F)c4c3C(F)(F)[C@@H]3C[C@H]43)c21 [Compound 185C]	18.2 µM
Cn1nc(NS(C)(=O)=O)c2c(Cl)ccc(-c3ccc(C#CC(C)(C)O)nc3[C@H](Cc3cccc(F)c3)NC(=O)Cn3nc(C(F)(F)F)c4c3C(F)(F)[C@@H]3C[C@H]43)c21 [Compound 187G]	19.8 µM
Cn1nc(NS(C)(=O)=O)c2c(Cl)ccc(-c3ccc(C#CC(C)(C)O)nc3[C@H](Cc3cc(F)cc(F)c3)NC(=O)Cn3nc(C(F)(F)F)c4c3CCCC4)c21	9.14 µM
Cn1nc(NS(C)(=O)=O)c2cccc(-c3ccc(C#CC(C)(C)N)nc3[C@H](Cc3cc(F)cc(F)c3)NC(=O)Cn3nc(C(F)(F)F)c4c3C(F)(F)[C@@H]3C[C@H]43)c21	7.46 µM
CC(C)(O)C#Cc1ccc(-c2ccc(Cl)c3c(NS(C)(=O)=O)n[nH]c23)c([C@H](Cc2cc(F)cc(F)c2)NC(=O)Cn2nc(C(F)F)c3c2C(F)(F)[C@@H]2C[C@H]32)n1 [Compound 108C]	> 53.1 µM
Cc1[nH]c2ccc(O)cc2c1CC(=O)N[C@@H](Cc1cc(F)cc(F)c1)c1nc(C#CC(C)(C)O)ccc1-c1ccc(Cl)c2c(NS(C)(=O)=O)nn(C)c12	28.8 µM
CC(=O)Nc1nn(C)c2c(-c3ccc(C#CC(C)(C)O)nc3[C@H](Cc3cc(F)cc(F)c3)NC(=O)Cn3nc(C(F)F)c4c3C(F)(F)[C@@H]3C[C@H]43)ccc(Cl)c12	7.58 µM
CNc1nn(C)c2c(-c3ccc(C#CC(C)(C)O)nc3[C@H](Cc3cc(F)cc(F)c3)NC(=O)Cn3nc(C(F)F)c4c3C(F)(F)[C@@H]3C[C@H]43)ccc(Cl)c12	12.5 µM
CN(C)C(=O)c1nn(CC(=O)N[C@@H](Cc2cc(F)cc(F)c2)c2nc(C#CC(C)(C)O)ccc2-c2ccc(Cl)c3c(NS(C)(=O)=O)nn(C)c23)c2c1[C@H]1C[C@H]1C2(F)F	40.5 µM
Cn1nc(NS(C)(=O)=O)c2c(Cl)ccc(-c3ccc(C#CC(C)(C)O)nc3[C@H](Cc3cc(F)cc(F)c3)NC(=O)Cn3ncc4c3C(F)(F)[C@@H]3C[C@H]43)c21	28.9 µM
CC(C)(O)C#Cc1ccc(-c2cccc3[nH]ncc23)c([C@H](Cc2cc(F)cc(F)c2)NC(=O)Cn2nc(C(F)(F)F)c3c2C(F)(F)[C@@H]2C[C@H]32)n1	5.87 µM
CC(C)(O)C#Cc1ccc(-c2cc(F)c(F)c(C(N)=O)c2)c([C@H](Cc2cc(F)cc(F)c2)NC(=O)Cn2nc(C(F)(F)F)c3c2C(F)(F)[C@@H]2C[C@H]32)n1	8.58 µM
CC(C)(O)C#Cc1ncc(-c2ccc3c(c2)C(=O)NC3)c([C@H](Cc2cc(F)cc(F)c2)NC(=O)Cn2nc(C(F)(F)F)c3c2C(F)(F)[C@@H]2C[C@H]32)n1 [Compound 22C]	4.95 µM
CC(C)(O)C#Cc1ccc(-c2cccc3c(=O)[nH]ccc23)c([C@H](Cc2cc(F)cc(F)c2)NC(=O)Cn2nc(C(F)(F)F)c3c2C(F)(F)[C@@H]2C[C@H]32)n1 [Compound 24B]	5.92 µM
CN1CCN(C(=O)Nc2nn(C)c3c(-c4ccc(C#CC(C)(C)O)nc4[C@H](Cc4cc(F)cc(F)c4)NC(=O)Cn4nc(C(F)(F)F)c5c4C(F)(F)[C@@H]4C[C@H]54)cccc23)CC1	11.1 µM

====

# System: uninfected MT-4 cells
# assay: Test B: Cytotoxicity Assay
# Assay type: cell-based
# measurement context: same protocol as Test A, 5 days
# Method: MT-4 cells were next mixed with HIV-IIIb at an m.o.i of 0.003 for 1 hour, after which time 35 μL of virus/cell mixture (2000 cells) was immediately added to each well containing 40 μL of diluted compound. […] Cell lysis was carried out by incubating at room temperature for 10 min and then chemiluminescence was read. […] Compound cytotoxicity and the corresponding CC50 values was determined using the same protocol as described in the antiviral assay (Test A) except that uninfected cells were used.

compound	units label	bound type	CC50
Cc1ccc(-c2ccc(C#CC(C)(C)O)nc2[C@H](Cc2cc(F)cc(F)c2)NC(=O)Cn2nc(C(F)F)c3c2C(F)(F)[C@@H]2C[C@H]32)c2c1c(NS(N)(=O)=O)nn2C	µM	=	9.51
CC(C)(C)C#Cc1ccc(-c2cccn3c(NS(C)(=O)=O)nnc23)c([C@H](Cc2cc(F)cc(F)c2)NC(=O)Cn2nc(C(F)F)c3c2C(F)(F)[C@@H]2C[C@H]32)n1	µM	=	28
CC(C)(O)C#Cc1ccc(-c2cccc3c(N)n[nH]c23)c([C@H](Cc2cc(F)cc(F)c2)NC(=O)Cn2nc(C(F)(F)F)c3c2C(F)(F)[C@@H]2C[C@H]32)n1 [Compound 29B]	µM	=	15.3
Cn1nc(NS(C)(=O)=O)c2c(Cl)ccc(-c3ccc(-c4ccccn4)nc3[C@H](Cc3cc(F)cc(F)c3)NC(=O)Cn3nc(C(F)(F)F)c4c3C(F)(F)[C@@H]3C[C@H]43)c21	µM	=	0.061
Cn1cc(-c2ccc(-c3ccc(Cl)c4c(NS(C)(=O)=O)nn(C)c34)c([C@H](Cc3cc(F)cc(F)c3)NC(=O)Cn3nc(C(F)(F)F)c4c3C(F)(F)[C@@H]3C[C@H]43)n2)cn1	µM	>	43.7
